molecular target: T1, MA peptide (Octet assay of PS557 variants); test: Octet (BLI), peptide on sensor, response after 200 s association
T1 construct: Peptide coated on the Octet sensor
Response field label takes Yes when Octet response is strictly below 8 nm and No in all other cases.

>>> group("PS557 (other, Natural ClpS parent protein; also called WT; wild-type protein) MPTAASATESAIEDTPAPARPEVDGRTKPKRQPRYHVVLWNDDDHTYQYVVVMLQSLFGHPPERGYRLAKEVDTQGRVIVLTTTREHAELKRDQIHAFGYDRLLARSKGSMKASIEAEE")
"Yes"
>>> group("PS961 (designed binder, Variant of PS557; also called N41D, V72M, Q55R, E63S, L68M, Y100R) MPTAASATESAIEDTPAPARPEVDGRTKPKRQPRYHVVLWDDDDHTYQYVVVMLRSLFGHPPSRGYRMAKEMDTQGRVIVLTTTREHAELKRDQIHAFGRDRLLARSKGSMKASIEAEE")
"No"
>>> group("PS962 (designed binder, Variant of PS557) MPTAASATESAIEDTPAPARPEVDGRTKPKRQPRYHVVLWDDDDHTYQYVVVMLRSLFGHPYARGYRLAKEMDTQGRVIVLTTTREHAELKRDQIHAFGRDRLLARSKGSMKASIEAEE")
"No"
>>> group("PS963 (designed binder, Variant of PS557) MPTAASATESAIEDTPAPARPEVDGRTKPKRQPRYHVVLWDDDDHTYQYVVVMLRSLFGHPPARGYRLAKEMDTQGRVIVLTTTREHAELKRDQIHAFGRDRLLARSKGSMKASIEAEE")
"No"
>>> group("PS960 (designed binder, Variant of PS557) MPTAASATESAIEDTPAPARPEVDGRTKPKRQPRYHVVLWDDDDHTYQYVVVMLRSLFGIPPERGYRLAKEMDTQGRVIVLTTTREHAELKRDQIHAFGYDRLLARSKGSMKASIEAEE")
"Yes"
